As shown below, each of these molecules has a reported inhibition value.
system tested: Amyloid-beta precursor protein (Homo sapiens) (UniProt P05067)
Sequence (P05067 whole entry): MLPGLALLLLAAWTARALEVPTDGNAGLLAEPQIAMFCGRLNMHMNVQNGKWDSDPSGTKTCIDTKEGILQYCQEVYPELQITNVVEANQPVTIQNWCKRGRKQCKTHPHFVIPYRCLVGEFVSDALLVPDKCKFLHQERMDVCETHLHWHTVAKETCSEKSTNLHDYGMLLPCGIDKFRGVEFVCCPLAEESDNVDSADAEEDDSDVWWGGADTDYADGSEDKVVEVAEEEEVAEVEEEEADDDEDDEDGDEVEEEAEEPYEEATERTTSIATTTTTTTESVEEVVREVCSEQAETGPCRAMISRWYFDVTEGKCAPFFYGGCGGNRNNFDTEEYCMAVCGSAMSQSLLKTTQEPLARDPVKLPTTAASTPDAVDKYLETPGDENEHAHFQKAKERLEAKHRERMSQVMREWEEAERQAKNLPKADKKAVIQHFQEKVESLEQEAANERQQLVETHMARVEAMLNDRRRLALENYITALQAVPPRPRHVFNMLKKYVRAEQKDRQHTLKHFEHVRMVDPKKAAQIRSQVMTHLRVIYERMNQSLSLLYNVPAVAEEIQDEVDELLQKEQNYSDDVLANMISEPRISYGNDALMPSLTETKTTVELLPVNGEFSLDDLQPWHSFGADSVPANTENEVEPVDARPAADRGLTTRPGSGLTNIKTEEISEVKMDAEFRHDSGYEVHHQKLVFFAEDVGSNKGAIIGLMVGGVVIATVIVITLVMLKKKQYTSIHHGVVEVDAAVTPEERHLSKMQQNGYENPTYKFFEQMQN
measurement protocol: Inhibition of amyloid beta (1 to 42) (unknown origin) assessed as reduction in peptide aggregation at 4 uM measured after 24 hrs by thioflavin-T fluorescence assay relative to control
Square brackets hold non-standard residues; d marks the D form. Peptide text beside a SMILES is read from it. ξ: configuration not given here. Bip = N[C@@H](Cc1ccc(-c2ccccc2)cc1)C(=O)O; Oic(3aξ,7aξ) = O=C(O)[C@@H]1CC2CCCCC2N1; Phe(4-NH2) = Nc1ccc(C[C@H](N)C(=O)O)cc1; Phe(4-F) = N[C@@H](Cc1ccc(F)cc1)C(=O)O; 1Nal = N[C@@H](Cc1cccc2ccccc12)C(=O)O; Gly(cPent) = N[C@H](C(=O)O)C1CCCC1; NMeF = CN[C@@H](Cc1ccccc1)C(=O)O; NMeNva = CCC[C@H](NC)C(=O)O; β3hP = O=C(O)C[C@@H]1CCCN1; Abu = CC[C@H](N)C(=O)O
measure: inhibition (%)

1) CC[C@H](C)[C@H](NC(=O)[C@@H](NC(=O)[C@@H](N)Cc1cccc2ccccc12)C(C)C)C(=O)N[C@@H](C)C(=O)O (H-[1Nal]VIA-OH); 23.8
2) CC[C@H](C)[C@H](NC(=O)[C@@H]1CC2CCCCC2N1C(=O)[C@@H](N)C(C)C)C(=O)N[C@@H](C)C(=O)O (some centres undefined) (H-V[Oic(3aξ,7aξ)]IA-OH); 100
3) CC[C@H](NC(=O)[C@@H](NC(=O)[C@@H](N)C(C)C)C(C)C)C(=O)N[C@@H](C)C(=O)O (H-VV[Abu]A-OH); 0
4) CC[C@H](C)[C@H](NC(=O)[C@@H](NC(=O)[C@H](Cc1ccccc1)NC)C(C)C)C(=O)N[C@@H](C)C(=O)O (H-[NMeF]VIA-OH); 94.3
5) CC[C@H](C)[C@H](NC(=O)[C@@H]1CC2CCCCC2N1C(=O)[C@@H]1CC2CCCCC2N1)C(=O)N[C@@H](C)C(=O)O (some centres undefined) (H-[Oic(3aξ,7aξ)][Oic(3aξ,7aξ)]IA-OH); 99.1
6) CC[C@H](C)[C@H](NC(=O)[C@@H](NC(=O)[C@@H](N)Cc1ccc(-c2ccccc2)cc1)C(C)C)C(=O)N[C@@H](C)C(=O)O (H-[Bip]VIA-OH); 34.7
7) CC[C@H](C)[C@H](NC(=O)[C@@H](NC(=O)[C@@H](N)Cc1ccc(N)cc1)C(C)C)C(=O)N[C@@H](C)C(=O)O (H-[Phe(4-NH2)]VIA-OH); 68.4
8) CCC[C@@H](C(=O)N[C@@H](C)C(=O)O)N(C)C(=O)[C@@H](NC(=O)[C@@H](N)C(C)C)C(C)C (H-VV[NMeNva]A-OH); 34.9
9) CC(C)[C@H](N)C(=O)N[C@H](C(=O)NC[C@@H]1CCCN1[C@@H](C)C(=O)O)C(C)C; 0
10) CC[C@H](C)[C@H](NC(=O)C[C@@H]1CCCN1C(=O)C[C@@H]1CCCN1)C(=O)N[C@@H](C)C(=O)O (H-[β3hP][β3hP]IA-OH); 89.7
11) CC[C@H](C)[C@H](NC(=O)[C@@H](NC(=O)[C@@H](N)C(C)C)C(C)C)C(=O)N[C@@H](C)C(=O)O (H-VVIA-OH); 60.6
12) CC[C@H](C)[C@H](NC(=O)[C@@H](NC(=O)[C@@H](N)Cc1ccc(F)cc1)C(C)C)C(=O)N[C@@H](C)C(=O)O (H-[Phe(4-F)]VIA-OH); 97.5
13) CC(C)[C@H](N)C(=O)N[C@H](C(=O)N[C@H](C(=O)N[C@@H](C)C(=O)O)C1CCCC1)C(C)C (H-VV[Gly(cPent)]A-OH); 40.3
14) CC[C@H](C)[C@H](NC(=O)CNC(=O)CN)C(=O)N[C@@H](C)C(=O)O (H-GGIA-OH); 95.2
